Hey, just so you know, these numbers are from PubChem BioAssay.

Could you please report measured inhibition for the items listed next?
Assay: inhibitors of TNFa-induced NFkB p65 translocation, primary screen, imaging, HUVEC, MLSMR starter and 10KST1 sets (AID 438);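 note: compound added about 3h40 before a 20 min TNFalpha stimulation; signal is the nuclear over cytoplasmic p65 intensity ratio per well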
Conditions: HUVEC TNFa-induced p65 nuclear translocation; at 2 µM, stronger effect = higher value, 0% TNFa-plus-vehicle, 100% no-TNFa wells
Reply with just the number (in %).

Tell me the measured inhibition of CCn1c(SCC(=O)Nc2ccccc2N2CCCCC2)nc2c1c(=O)n(C)c(=O)n2C , please.
-5.6

Entry to check: Cc1cc(C(F)F)n2ncc(C(=O)NC3CCCCCC3)c2n1
0

Next record, please: Cc1ccccc1-c1nc(CN2CCC(C(=O)N3CCC(C(N)=O)CC3)CC2)c(C)o1
6.1

Another compound: COc1cccc(NC(=O)Cc2nnc(SCC(=O)c3ccccc3)n2C)c1
9.7

What do you get for COC(=O)c1ccc(COc2ccc(C3C4=C(CCCC4=O)Nc4onc(C)c43)cc2)cc1 (configuration not stated) ?
-4.7

For CCCCn1c(SCC(=O)Nc2ccc(OC)cc2)nc2ccc(N3CCOCC3)cc2c1=O then?
-0.6

Consider next the compound COc1ccc(N2C(=O)C(Cl)=C(Nc3c(C)n(C)n(-c4ccccc4)c3=O)C2=O)cc1 in the same way.
-22.9

For CCOC(=O)N1CCN(C(=O)CCc2c(C)nc3c(c(C)nn3-c3ccc(C)c(C)c3)c2C)CC1 then?
0.9

Please do the same for O=C(NCCN1CCOCC1)C1CCC(=O)N1Cc1ccccc1Cl (configuration not stated) as well.
-11.4

# iterate: CCOC(=O)c1nnc2cc(-c3ccc(Br)cc3)nn2c1C
-1.7

One more compound: Cc1cc2cc(CNC(=O)c3ccc4c(c3)OCO4)ccc2[nH]1
2.9

And for CCn1c(CSc2nnc(-c3cccnc3)n2-c2ccccc2C)nc2cc(C(=O)O)ccc21 ?
-13.1

Next compound up: COc1ccccc1C(=O)NCC(=O)Nc1ccccc1
-2.3

Another: O=C(Cn1cnc2c(cnn2-c2ccc(F)cc2)c1=O)N1CCN(c2ccccc2)CC1
-6

Follow-up entry: Cn1c(=O)c2ccccc2n(Cc2ccccc2F)c1=O
-8.1

Input CCC(C)(C)NC(=O)CN(C(=O)c1snc(C(N)=O)c1N)c1ccc2c(c1)OCO2
-7.3

Another compound to look at: CCOC(=O)c1nnn(-c2nonc2N)c1CN1CCc2ccccc2C1
-3.9

Can you handle O=C(O)CCCC(=O)NCCc1ccncc1 next?
8.1

And the next one, Cc1c(C(=O)NCc2cccnc2)sc2ncn(CC(=O)N3CCCCC3C)c(=O)c12 (configuration not stated) ?
-7

// same read-out, input: O=c1cc(CN2CCN(c3ccc(F)cc3)CC2)nc2sccn12
3.4

Also check CCOC(=O)Cn1c(S(=O)(=O)Cc2ccccc2)nc2ccccc21
5.5

Again, but for COc1ccc(S(=O)(=O)N2CCCC2C(=O)Nc2ccc(O)cc2)cc1 (configuration not stated)
7.1

----------
Test: reduction of polyQ htt aggregates in cells – imaging, exon1htt(103Q)mCFP cells, high-content imaging, primary screen (AID 483);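 note: compound exposure lasted 3 days before fixation; percent of the per-plate median nuclei count of sample wells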
Settings: exon1htt(103Q)mCFP cell line, aggregate imaging, at 2 µM; measured here: cell count, toxicity
measured-property: nuclei count

Entry Cc1cc(C)nc(-n2nc(C)cc2NC(=O)c2ccc(Br)o2)n1 : reported nuclei count = ?
90.1%

Again, but for Cc1cc(C(=O)COC(=O)c2n[nH]c3ccccc23)c(C)n1C
86.6%

Queued: COc1ccc(-c2cc(C(=O)NCc3ccc(Cl)cc3)no2)cc1OC
106%

Ok, now COC(=O)c1ccc(COc2ccc(C3C4=C(CCCC4=O)Nc4onc(C)c43)cc2)cc1 (stereo not given)
112%

Would you kindly repeat that for CC(NC(=O)c1ccco1)c1ccc2c(c1)OCCO2 (stereo not given) ?
89.2%

Follow-up item: CC(=O)N1CCC2(CC1)CC(=O)c1cc(OCC(=O)NCc3ccco3)ccc1O2
113%

Another compound to look at: Cc1ccc(C(O)c2nc3ccccc3n2C(C)C)cc1 (stereo not given)
91.7%

# iterate: O=C1CN(C(=O)COC(=O)C23CC4CC(CC(O)(C4)C2)C3)c2ccccc2N1
106%

Also C=CCn1c(COc2ccc(CC)cc2)nnc1SC/C(O)=C(\C#N)c1nc2ccccc2[nH]1 , if possible.
101%

Please do the same for OCc1nc2ccccc2n1CCCOc1ccccc1 as well.
87%

Same again, this time with CCCCc1c(O)nc(SCC(=O)Nc2ccc3c(c2)CCC3)[nH]c1=O
75.8%

Also, O=C(Nc1ccon1)c1cc(-c2ccccc2)nc2ccccc12 please.
98.4%

Now try CC(=O)N1CN(C2CCCC2)Cc2c1sc1c2CCCC1 .
99.2%

Another compound to look at: COc1ccc(C2C=C(c3ccccc3)Nc3ncnn32)cc1 (stereo not given)
105%

Ok, now Cn1c(CSc2nc3ccccc3s2)nnc1SCC(=O)NCCN1CCOCC1
94.1%

Another compound to check: Cn1c(=O)[nH]c(=O)c2c1nc(NCCCn1ccnc1)n2Cc1ccccc1
130%

Try this compound next: CC(=O)Nc1ccc(S(=O)(=O)N2CCSC2c2ccccc2)cc1 (stereo not given)
106%

Now the same for CC1Cc2ccccc2N1CC(=O)NC(=O)NCc1ccco1 (stereo not given)
91.7%

Would you mind doing CCOC(=O)c1[nH]c(C)c(C(=O)Nc2ccc(C)cc2C)c1C as well?
36.6%

Moving on to the next compound: N#CC1=C(N)N2C(=C(C#N)C13CCCCC3)SC1CCCCC12O (stereo not given)
91.5%

One more compound: CC1CCCN(S(=O)(=O)c2ccc(C(=O)Nc3nnc(-c4ccccc4Cl)o3)cc2)C1 (stereo not given)
111%

And then Cc1ccnc(N2CCN(C(=O)CSc3nc4ccccc4nc3N3CCCCC3)CC2)c1 , what is it?
113%

For CC(C)C(CO)NC(=O)CC(=O)NC(CO)C(C)C (stereo not given) then?
82.3%

Quick one: CC(=O)c1cccc(NC(=O)NCc2ccccn2)c1
132%

// same read-out, input: O=c1[nH]c2cc3c(cc2cc1C(c1nnnn1C1CCCCC1)N1CCSCC1)OCCO3 (stereo not given)
106%

Do the same for COc1ccc(C)cc1NC(=O)CNC(=O)Cn1ccc2ccccc2c1=O please
108%

And Cc1cc(C)n(C(=O)CCCCCC(=O)n2nc(C)cc2C)n1 ?
116%

Also O=C(Nc1ccc2oc(Cc3ccc(Cl)cc3)nc2c1)c1cccnc1 ?
93.5%

Another compound to look at: Cc1ccc2cc(CN(CC3CCCO3)S(=O)(=O)c3ccc4c(c3)OCCO4)c(=O)[nH]c2c1C (stereo not given)
110%

Here is the next compound: COc1ccccc1NC(=O)NCc1ccc2c(c1)OCO2
97%

Similarly, Clc1ccccc1OCCCCn1ccnc1 ?
97.3%

Do the same for CCOC(=O)C(C)C1(O)c2ccccc2-c2ncccc21 (stereo not given) please
117%

What do you have for Cc1c(C(=O)NCc2ccoc2)oc2ccc3c(c12)C(=O)CC(C)(C)O3 ?
78.2%

Likewise for O=C(Cn1c(NCCO)nc2ccccc21)c1ccccc1 ?
106%

Do the same for Cn1c(=O)oc2cc(S(=O)(=O)N3CCCC(C(=O)NCC4COc5ccccc5O4)C3)ccc21 (stereo not given) please
105%

Next up: CCn1c(C(=O)OC)cc2c1ccn2-c1ccc(F)cc1
99.6%

Try this compound too: CC1CN(C(=O)CSc2ncnc3sccc23)CC(C)O1 (stereo not given)
98.3%

Follow-up item: CC(=O)C1=C(O)C(=O)N(Cc2cccnc2)C1c1ccccc1 (stereo not given)
97.7%

Also CCCCn1c(CN2CCN(c3cccc(Cl)c3)CC2)nc2c1c(=O)n(C)c(=O)n2C ?
100%

Another compound to look at: O=C(O)C1CC(=O)N(Cc2ccccc2)C1 (stereo not given)
110%

Now try COc1ccc(-c2noc(CCCOc3ccccc3)n2)cc1OC .
93%

Request: Cc1ccc(S(=O)(=O)N2CCCN(S(=O)(=O)C3CCS(=O)(=O)C3)CC2)cc1 (stereo not given)
111%

Next up: O=C(Nc1ccon1)c1cccc(S(=O)(=O)N2CCCC2)c1
86.7%

Now give it for COc1ccc(S(=O)(=O)Cc2ccc(C(=O)N3CCN(c4ccccc4)CC3)o2)cc1 too.
70.9%

Also Cc1ccc(NC(=O)CCC(=O)OCC(F)(F)C(F)F)cc1 , if possible.
69.2%

----------
I'd be grateful if you could share measured slope for these entries.
Target: Alpha-2C adrenergic receptor (Homo sapiens) (UniProt P18825)
Sequence (P18825 whole entry, looked up): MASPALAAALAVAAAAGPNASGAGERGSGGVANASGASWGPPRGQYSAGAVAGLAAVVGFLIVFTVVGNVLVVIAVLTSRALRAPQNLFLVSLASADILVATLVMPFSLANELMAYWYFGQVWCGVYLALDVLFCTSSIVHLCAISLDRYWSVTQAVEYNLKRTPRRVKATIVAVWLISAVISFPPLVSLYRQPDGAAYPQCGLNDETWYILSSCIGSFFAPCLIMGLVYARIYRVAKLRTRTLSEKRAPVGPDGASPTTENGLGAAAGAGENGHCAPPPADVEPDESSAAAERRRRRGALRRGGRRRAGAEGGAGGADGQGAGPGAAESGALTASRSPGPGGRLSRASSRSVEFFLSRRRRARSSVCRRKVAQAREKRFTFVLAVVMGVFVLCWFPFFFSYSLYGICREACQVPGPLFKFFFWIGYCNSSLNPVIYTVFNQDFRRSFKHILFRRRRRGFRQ
Test: compounds altering alpha2C-coupled GIRK flux – cell-based, HEK293 alpha2C/GIRK1/2, thallium flux, primary screen (AID 624);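 note: slope of fluorescence ratio to pre-addition baseline per second over 15 to 24 s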
Conditions: thallium flux BTC fluorescence, at 10 µM, actives lie on both sides
Response field accepts a number only; no unit should be typed.

Form field: reported slope of CC1(C)C(c2cccs2)=[N+]([O-])C2(CCCCC/C2=N\O)N1O (stereo not given)
0.00609

Request: CCn1c(SCC(N)=O)nnc1-c1ccc(S(=O)(=O)N2CCN(C)CC2)cc1
0.00446

For COc1ccc(C(=O)NCCC(C)C)cc1S(=O)(=O)N1CCOCC1 then?
0.00454

What do you have for COC(=O)c1[nH]c2ccc(C)cc2c1NC(=O)CN1CCC(C)CC1 ?
0.00492

Proceed to CC(=O)Nc1ccccc1-c1nc2ccc(C(=O)N3CCN(c4ccccc4)CC3)cc2[nH]c1=O
0.00656
